Just for reference, PubChem BioAssay AID1963984 is where these values come from.

- Tested on: 233499-124-R-J3-PDC spheroids with HUVEC/MSC, viability;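 also: spheroids exposed to agents for seven days before readout; percent viability relative to DMSO vehicle control taken as 100%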
- assayMethodText: Anticancer human tumor 233499-124-R-J3-PDC patient-derived colon adenocarcinoma cell line growth inhibition [PI3K]
- experimentalConditions: second compound 0.316 µM; first compound 3.16 µM; hits give low values
Measured viability, T/C values are reported for all entries that follow.
Expressed in %, but write only the number.

Solved cases (2 shown):
• C[C@@H](NC(=O)c1ncnc(N)c1Cl)c1ncc(C(=O)Nc2cc(C(F)(F)F)c(Cl)cn2)s1 + CC(Nc1ccc2c(c1)OCCn1cc(N3C(=O)OCC3C(F)F)nc1-2)C(N)=O = 102
• CNC(=O)c1ccc(N2C(=S)N(c3ccc(C#N)c(C(F)(F)F)c3)C(=O)C2(C)C)cc1F + COc1c(OCCCN2CCOCC2)ccc2c3n(c(=NC(=O)c4cnc(N)nc4)nc12)CCN3 = 30.7

Next item in the queue.
Need viability, T/C, item CC(C)NCC(C(=O)N1CCN(c2ncnc3c2C(C)CC3O)CC1)c1ccc(Cl)cc1 (stereo not drawn) + COc1c(OCCCN2CCOCC2)ccc2c3n(c(=NC(=O)c4cnc(N)nc4)nc12)CCN3
35.4
